From: patent US20250250357A1

# targetUnderTest: T1, human MSLN-R2-his protein (human, UniProt Q13421 391-486)
# T1 construct: Region 2 of human MSLN, His-tagged; also called human MSLN-R2 protein; hMSLN-R2-his; not shown: His tag
# T1 sequence (Q13421 other isoform, or with tags, fused parts or gaps): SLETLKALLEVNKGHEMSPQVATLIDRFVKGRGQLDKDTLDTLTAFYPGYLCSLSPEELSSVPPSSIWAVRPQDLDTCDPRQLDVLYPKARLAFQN
# procedureDetails: ELISA, coated MSLN-R2;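 further: chimeric antibodies bound to blocked coated plates for 2 h at 37 °C, TMB colour development stopped with HCl, with a negative control antibody for comparison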
experimentalEndpoint: OD450 at 0.001 nM (OD450)

| binder | dataValue |
| --- | --- |
| S009-F1.62.9 (antibody, human IgG1, kappa, V domains shown, Human-murine chimeric antibody, human IgG1/kappa constant regions) VH: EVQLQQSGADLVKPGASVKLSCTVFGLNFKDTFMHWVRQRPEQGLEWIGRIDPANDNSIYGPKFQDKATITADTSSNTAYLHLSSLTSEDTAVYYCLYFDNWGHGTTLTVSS VL: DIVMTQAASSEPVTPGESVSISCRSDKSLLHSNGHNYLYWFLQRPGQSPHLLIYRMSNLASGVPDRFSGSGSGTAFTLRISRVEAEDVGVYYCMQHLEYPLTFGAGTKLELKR | 0.05 |
| S009-F1.25.10 (antibody, human IgG1, kappa, V domains shown, Human-murine chimeric antibody, human IgG1/kappa constant regions) VH: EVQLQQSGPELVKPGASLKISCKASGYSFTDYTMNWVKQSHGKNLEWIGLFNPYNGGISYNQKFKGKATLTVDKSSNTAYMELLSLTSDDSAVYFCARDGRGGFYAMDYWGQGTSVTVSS VL: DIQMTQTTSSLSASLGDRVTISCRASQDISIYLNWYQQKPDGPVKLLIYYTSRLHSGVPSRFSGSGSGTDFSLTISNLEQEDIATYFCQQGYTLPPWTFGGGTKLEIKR | 0.04 |
| S009-F1.57.1 (antibody, human IgG1, kappa, V domains shown, Human-murine chimeric antibody, human IgG1/kappa constant regions) VH: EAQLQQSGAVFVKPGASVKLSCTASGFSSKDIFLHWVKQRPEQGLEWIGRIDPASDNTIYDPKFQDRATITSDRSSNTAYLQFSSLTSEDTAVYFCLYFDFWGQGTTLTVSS VL: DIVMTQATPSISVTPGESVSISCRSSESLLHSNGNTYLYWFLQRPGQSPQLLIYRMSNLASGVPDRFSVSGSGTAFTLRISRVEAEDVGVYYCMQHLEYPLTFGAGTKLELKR | 0.04 |
| S009-F1.2.12 (antibody, human IgG1, kappa, V domains shown) VH: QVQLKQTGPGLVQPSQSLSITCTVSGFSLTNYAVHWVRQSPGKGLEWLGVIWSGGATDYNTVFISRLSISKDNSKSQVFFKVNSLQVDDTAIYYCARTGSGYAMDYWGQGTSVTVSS VL: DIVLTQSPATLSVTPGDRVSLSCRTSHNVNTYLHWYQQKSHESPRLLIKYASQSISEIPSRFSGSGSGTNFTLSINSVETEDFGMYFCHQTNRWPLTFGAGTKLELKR | 0.05 |
